Reference source for all entries: ChEMBL document CHEMBL5634143

Tested on: Staphylococcus epidermidis
Experiment: Antibacterial activity against Staphylococcus epidermidis 12228 assessed as inhibition of bacterial growth
Type: functional
Listed molecules paired with reported MIC

- smiles notation: "CC[C@H](C)[C@H](NC(=O)[C@@H](Cc1ccccc1)NC)C(=O)N[C@@H](CO)C(=O)N[C@H](CCCNC(=N)N)C(=O)N[C@@H](C(=O)N[C@H](C(=O)N[C@@H](CO)C(=O)N[C@H]1C(=O)N[C@@H](C)C(=O)N[C@@H](C2CCCCC2)C(=O)N[C@@H]([C@@H](C)CC)C(=O)O[C@H]1C)[C@@H](C)CC)[C@@H](C)CC"
  study target: "Staphylococcus epidermidis"
  MIC: "0.063 mg/L"
- smiles notation: "CC[C@H](C)[C@H](NC(=O)[C@@H](Cc1ccccc1)NC)C(=O)N[C@@H](CCCNC(=N)N)C(=O)N[C@H](CCCNC(=N)N)C(=O)N[C@@H](C(=O)N[C@H](C(=O)N[C@@H](CO)C(=O)N[C@H]1C(=O)N[C@@H](C)C(=O)N[C@@H](C2CCCCC2)C(=O)N[C@@H]([C@@H](C)CC)C(=O)O[C@H]1C)[C@@H](C)CC)[C@@H](C)CC"
  study target: "Staphylococcus epidermidis"
  MIC: "0.063 mg/L"
- smiles notation: "CCC[C@@H]1NC(=O)[C@H](CCCNC(=N)N)NC(=O)[C@H](NC(=O)[C@H](CO)NC(=O)[C@@H](NC(=O)[C@H](NC(=O)[C@@H](CCCNC(=N)N)NC(=O)[C@H](CCCNC(=N)N)NC(=O)[C@@H](NC(=O)[C@@H](Cc2ccccc2)NC)[C@@H](C)CC)[C@@H](C)CC)[C@@H](C)CC)[C@H](C)OC(=O)[C@H]([C@@H](C)CC)NC1=O"
  study target: "Staphylococcus epidermidis"
  MIC: "2 mg/L"

---

Tested on: Staphylococcus aureus
Test: Antibacterial activity against methicilin-resistant Staphylococcus aureus ATCC 700699 assessed as inhibition of bacterial growth
Format: functional

- smiles notation: "CC[C@H](C)[C@H](NC(=O)[C@@H](Cc1ccccc1)NC)C(=O)N[C@@H](CO)C(=O)N[C@H](CCCNC(=N)N)C(=O)N[C@@H](C(=O)N[C@H](C(=O)N[C@@H](CO)C(=O)N[C@H]1C(=O)N[C@@H](C)C(=O)N[C@@H](C2CCCCC2)C(=O)N[C@@H]([C@@H](C)CC)C(=O)O[C@H]1C)[C@@H](C)CC)[C@@H](C)CC"
  MIC (mg/L): 0.063
- smiles notation: "CCC[C@@H]1NC(=O)[C@H](CCCNC(=N)N)NC(=O)[C@H](NC(=O)[C@H](CO)NC(=O)[C@@H](NC(=O)[C@H](NC(=O)[C@@H](CCCNC(=N)N)NC(=O)[C@H](CCCNC(=N)N)NC(=O)[C@@H](NC(=O)[C@@H](Cc2ccccc2)NC)[C@@H](C)CC)[C@@H](C)CC)[C@@H](C)CC)[C@H](C)OC(=O)[C@H]([C@@H](C)CC)NC1=O"
  MIC (mg/L): 32
- smiles notation: "CCCC[C@@H]1NC(=O)[C@H](C)NC(=O)[C@H](NC(=O)[C@H](CO)NC(=O)[C@@H](NC(=O)[C@H](NC(=O)[C@@H](CCC(N)=O)NC(=O)[C@H](CO)NC(=O)[C@@H](NC(=O)[C@@H](Cc2ccccc2)NC)[C@@H](C)CC)[C@@H](C)CC)[C@@H](C)CC)[C@H](C)OC(=O)[C@H]([C@@H](C)CC)NC1=O"
  MIC (mg/L): 0.5
- smiles notation: "CCC[C@@H]1NC(=O)[C@H](C)NC(=O)[C@H](NC(=O)[C@H](CO)NC(=O)[C@@H](NC(=O)[C@H](NC(=O)[C@@H](CCC(N)=O)NC(=O)[C@H](CO)NC(=O)[C@@H](NC(=O)[C@@H](Cc2ccccc2)NC)[C@@H](C)CC)[C@@H](C)CC)[C@@H](C)CC)[C@H](C)OC(=O)[C@H]([C@@H](C)CC)NC1=O"
  MIC (mg/L): 0.5
- smiles notation: "CCC[C@@H]1NC(=O)[C@H](C)NC(=O)[C@H](NC(=O)[C@H](CO)NC(=O)[C@@H](NC(=O)[C@H](NC(=O)[C@@H](CCC(N)=O)NC(=O)[C@H](CCCNC(=N)N)NC(=O)[C@@H](NC(=O)[C@@H](Cc2ccccc2)NC)[C@@H](C)CC)[C@@H](C)CC)[C@@H](C)CC)[C@H](C)OC(=O)[C@H]([C@@H](C)CC)NC1=O"
  MIC (mg/L): 0.25
- smiles notation: "CC[C@H](C)[C@H](NC(=O)[C@@H](Cc1ccccc1)NC)C(=O)N[C@@H](CCCNC(=N)N)C(=O)N[C@H](CCC(N)=O)C(=O)N[C@@H](C(=O)N[C@H](C(=O)N[C@@H](CO)C(=O)N[C@H]1C(=O)N[C@@H](C)C(=O)N[C@@H](C2CCCCC2)C(=O)N[C@@H]([C@@H](C)CC)C(=O)O[C@H]1C)[C@@H](C)CC)[C@@H](C)CC"
  MIC (mg/L): 0.063
- smiles notation: "COc1c(N2C[C@@H]3CCCN[C@@H]3C2)c(F)cc2c(=O)c(C(=O)O)cn(C3CC3)c12"
  MIC (mg/L): 4
- smiles notation: "CCC[C@@H]1NC(=O)[C@H](C)NC(=O)[C@H](NC(=O)[C@H](CO)NC(=O)[C@@H](NC(=O)[C@H](NC(=O)[C@@H](CCCNC(=N)N)NC(=O)[C@H](CO)NC(=O)[C@@H](NC(=O)[C@@H](Cc2ccccc2)NC)[C@@H](C)CC)[C@@H](C)CC)[C@@H](C)CC)[C@H](C)OC(=O)[C@H]([C@@H](C)CC)NC1=O"
  MIC (mg/L): 0.063
- smiles notation: "CCC[C@@H]1NC(=O)[C@H](CCCNC(=N)N)NC(=O)[C@H](NC(=O)[C@H](CO)NC(=O)[C@@H](NC(=O)[C@H](NC(=O)[C@@H](CCC(N)=O)NC(=O)[C@H](CCCNC(=N)N)NC(=O)[C@@H](NC(=O)[C@@H](Cc2ccccc2)NC)[C@@H](C)CC)[C@@H](C)CC)[C@@H](C)CC)[C@H](C)OC(=O)[C@H]([C@@H](C)CC)NC1=O"
  MIC (mg/L): 0.25
- smiles notation: "CC[C@H](C)[C@H](NC(=O)[C@@H](Cc1ccccc1)NC)C(=O)N[C@@H](CCCNC(=N)N)C(=O)N[C@H](CCC(N)=O)C(=O)N[C@@H](C(=O)N[C@H](C(=O)N[C@@H](CO)C(=O)N[C@H]1C(=O)N[C@@H](CCCNC(=N)N)C(=O)N[C@@H](C2CCCCC2)C(=O)N[C@@H]([C@@H](C)CC)C(=O)O[C@H]1C)[C@@H](C)CC)[C@@H](C)CC"
  MIC (mg/L): 0.5
- smiles notation: "CCC[C@@H]1NC(=O)[C@H](CCCNC(=N)N)NC(=O)[C@H](NC(=O)[C@H](CO)NC(=O)[C@@H](NC(=O)[C@H](NC(=O)[C@@H](CCC(N)=O)NC(=O)[C@H](CO)NC(=O)[C@@H](NC(=O)[C@@H](Cc2ccccc2)NC)[C@@H](C)CC)[C@@H](C)CC)[C@@H](C)CC)[C@H](C)OC(=O)[C@H]([C@@H](C)CC)NC1=O"
  MIC (mg/L): 0.5
- smiles notation: "CCC[C@@H]1NC(=O)[C@H](CCCNC(=N)N)NC(=O)[C@H](NC(=O)[C@H](CO)NC(=O)[C@@H](NC(=O)[C@H](NC(=O)[C@@H](CCCNC(=N)N)NC(=O)[C@H](CO)NC(=O)[C@@H](NC(=O)[C@@H](Cc2ccccc2)NC)[C@@H](C)CC)[C@@H](C)CC)[C@@H](C)CC)[C@H](C)OC(=O)[C@H]([C@@H](C)CC)NC1=O"
  MIC (mg/L): 0.5

---

Experiment: Hemolytic activity in rabbit erythrocytes assessed as hemolysis at 512 microg/ml relative to control
Type: toxicity, cell-based, Oryctolagus cuniculus, Erythrocyte
Settings: at 512 µg/mL, read-out: Activity
Listed molecules paired with reported hemolysis at 512 microg/ml

- smiles notation: "CC[C@H](C)[C@H](NC(=O)[C@@H](Cc1ccccc1)NC)C(=O)N[C@@H](CO)C(=O)N[C@H](CCCNC(=N)N)C(=O)N[C@@H](C(=O)N[C@H](C(=O)N[C@@H](CO)C(=O)N[C@H]1C(=O)N[C@@H](C)C(=O)N[C@@H](C2CCCCC2)C(=O)N[C@@H]([C@@H](C)CC)C(=O)O[C@H]1C)[C@@H](C)CC)[C@@H](C)CC"
  hemolysis at 512 microg/ml: "≤ 2%"
- smiles notation: "CCCC[C@@H]1NC(=O)[C@H](C)NC(=O)[C@H](NC(=O)[C@H](CO)NC(=O)[C@@H](NC(=O)[C@H](NC(=O)[C@@H](CCC(N)=O)NC(=O)[C@H](CO)NC(=O)[C@@H](NC(=O)[C@@H](Cc2ccccc2)NC)[C@@H](C)CC)[C@@H](C)CC)[C@@H](C)CC)[C@H](C)OC(=O)[C@H]([C@@H](C)CC)NC1=O"
  hemolysis at 512 microg/ml: "≤ 2%"
- smiles notation: "CC[C@H](C)[C@H](NC(=O)[C@@H](Cc1ccccc1)NC)C(=O)N[C@@H](CO)C(=O)N[C@H](CCC(N)=O)C(=O)N[C@@H](C(=O)N[C@H](C(=O)N[C@@H](CO)C(=O)N[C@H]1C(=O)N[C@@H](C)C(=O)N[C@@H](C2CCCCC2)C(=O)N[C@@H]([C@@H](C)CC)C(=O)O[C@H]1C)[C@@H](C)CC)[C@@H](C)CC"
  hemolysis at 512 microg/ml: "≤ 2%"
